# assayed_system: Melanocortin receptor 5 (Homo sapiens)
# Sequence (P33032 whole entry): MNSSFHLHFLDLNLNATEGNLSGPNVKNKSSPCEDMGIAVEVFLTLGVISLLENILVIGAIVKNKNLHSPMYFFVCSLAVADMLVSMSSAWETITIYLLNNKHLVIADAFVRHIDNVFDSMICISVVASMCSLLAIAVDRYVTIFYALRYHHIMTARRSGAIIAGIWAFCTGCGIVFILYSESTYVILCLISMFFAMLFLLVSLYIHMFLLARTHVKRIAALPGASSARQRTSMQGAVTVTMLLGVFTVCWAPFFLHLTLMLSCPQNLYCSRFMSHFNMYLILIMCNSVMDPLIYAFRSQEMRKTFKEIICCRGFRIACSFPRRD
# test: […] at human MC5R assessed as stimulation of cAMP production
pEC50: −log10 of the molar value.
Use condition met when the recorded pEC50 is no lower than 6; use condition not met when it is lower.

[
  {
    "structure_string": "Cn1nnnc1CC1(Cc2ccccc2)CCN(C(=O)[C@H](Cc2ccc(Cl)cc2)NC(=O)[C@H]2Cc3ccccc3CN2)CC1",
    "assayed_system": "Melanocortin receptor 5 (Homo sapiens)",
    "qualitative_label": "condition not met"
  },
  {
    "structure_string": "N#CCC1(C2CCCCC2)CCN(C(=O)[C@H](Cc2ccc(Cl)cc2)NC(=O)[C@H]2Cc3ccccc3CN2)CC1",
    "assayed_system": "Melanocortin receptor 5 (Homo sapiens)",
    "qualitative_label": "condition met"
  },
  {
    "structure_string": "Cn1nnnc1CC1(C2CCOCC2)CCN(C(=O)[C@H](Cc2ccc(Cl)cc2)NC(=O)[C@H]2Cc3ccccc3CN2)CC1",
    "assayed_system": "Melanocortin receptor 5 (Homo sapiens)",
    "qualitative_label": "condition not met"
  }
]
